- Target or system: CDK9/CycT1 (Homo sapiens)
- Construct: Recombinant full-length His-tagged human CDK9 and CycT1; His; purchased Invitrogen PV4131; host or cells: insect cells
- Sequence (P50750 whole entry): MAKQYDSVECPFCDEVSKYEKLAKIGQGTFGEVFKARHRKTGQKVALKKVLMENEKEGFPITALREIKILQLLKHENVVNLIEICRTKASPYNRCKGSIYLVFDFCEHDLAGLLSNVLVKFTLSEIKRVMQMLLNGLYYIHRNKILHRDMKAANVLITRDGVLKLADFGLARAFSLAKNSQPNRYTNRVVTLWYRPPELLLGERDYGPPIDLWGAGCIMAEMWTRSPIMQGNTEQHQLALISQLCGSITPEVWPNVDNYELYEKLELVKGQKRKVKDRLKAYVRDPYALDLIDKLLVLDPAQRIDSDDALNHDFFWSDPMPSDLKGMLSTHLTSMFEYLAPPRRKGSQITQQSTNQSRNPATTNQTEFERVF
- Sequence (O60563 whole entry partner): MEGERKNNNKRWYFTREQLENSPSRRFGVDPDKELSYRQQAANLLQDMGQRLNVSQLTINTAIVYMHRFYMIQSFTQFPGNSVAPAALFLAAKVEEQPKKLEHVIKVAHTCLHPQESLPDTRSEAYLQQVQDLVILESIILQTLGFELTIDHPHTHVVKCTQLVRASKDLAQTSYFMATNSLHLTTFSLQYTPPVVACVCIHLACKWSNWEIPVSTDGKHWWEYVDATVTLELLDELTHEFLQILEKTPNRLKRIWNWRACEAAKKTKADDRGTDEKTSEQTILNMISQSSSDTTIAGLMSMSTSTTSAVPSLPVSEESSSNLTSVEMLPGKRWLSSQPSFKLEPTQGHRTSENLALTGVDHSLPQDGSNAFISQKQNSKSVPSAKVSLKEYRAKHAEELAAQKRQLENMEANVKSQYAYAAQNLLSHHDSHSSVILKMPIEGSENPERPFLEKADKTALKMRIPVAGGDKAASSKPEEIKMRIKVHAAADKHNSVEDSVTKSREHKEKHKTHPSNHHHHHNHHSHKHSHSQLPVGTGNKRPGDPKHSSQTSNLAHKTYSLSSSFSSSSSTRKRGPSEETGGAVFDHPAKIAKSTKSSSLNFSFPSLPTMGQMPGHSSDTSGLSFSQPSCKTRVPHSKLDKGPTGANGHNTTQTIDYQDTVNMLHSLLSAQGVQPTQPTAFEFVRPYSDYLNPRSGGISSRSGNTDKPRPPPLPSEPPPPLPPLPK
- Test: CDK9/CycT1 kinase assay (Method 1a)
- Assay type: biochemical
- Condition description: 10 μM ATP
pIC50: −log10 of the molar value.
Listed next: entries and their corresponding pIC50.

Compound: COc1cc(F)ccc1-c1cc(Nc2cc(CS(C)(=N)=O)ccn2)ncn1 (racemic) [Example 1]
pIC50: 8.30

Compound: COc1cc(F)ccc1-c1cc(Nc2cc(CS(C)(=N)=O)cc(C(F)(F)F)n2)ncn1 (racemic)
pIC50: 8.30

Compound: COc1cc(F)ccc1-c1cc(Nc2cc(CS(C)(=N)=O)ccn2)ncn1 (single isomer, unassigned) [Example 2]
pIC50: 8.05

Compound: COc1cc(F)ccc1-c1cc(Nc2cc(CS(C)(=N)=O)cc(Cl)n2)ncn1 (racemic) [Example 4]
pIC50: 8.40

Compound: COc1cc(F)ccc1-c1cc(Nc2cc(CS(C)(=N)=O)cc(C)n2)ncn1 (single isomer, unassigned) [Example 8]
pIC50: 8.40

Compound: COc1cc(F)ccc1-c1cc(Nc2cc(CS(C)(=N)=O)cc(Cl)n2)ncn1 (single isomer, unassigned) [Example 5]
pIC50: 8.30

Compound: COc1cc(F)ccc1-c1cc(Nc2cc(CS(C)(=N)=O)ccn2)ncn1 (single isomer, unassigned) [Example 3]
pIC50: 8.40

====

- Tested on: HeLa-MaTu-ADR cells
- Test: Proliferation assay, HeLa-MaTu-ADR (Method 3)
- Type: cell-based, human
- Condition description: Homo sapiens, 96 h, 4 days, crystal violet; read-out: Inhibition of HeLa-MaTu-ADR cell proliferation IC50
pIC50: −log10 of the molar value.

Compound: COc1cc(F)ccc1-c1cc(Nc2cc(CS(C)(=N)=O)cc(C)n2)ncn1 (single isomer, unassigned) [Example 8]
pIC50: 6.95

Compound: COc1cc(F)ccc1-c1cc(Nc2cc(CS(C)(=N)=O)cc(Cl)n2)ncn1 (racemic) [Example 4]
pIC50: 7.01

Compound: COc1cc(F)ccc1-c1cc(Nc2cc(CS(C)(=N)=O)cc(C(F)(F)F)n2)ncn1 (racemic)
pIC50: 6.98

Compound: COc1cc(F)ccc1-c1cc(Nc2cc(CS(C)(=N)=O)ccn2)ncn1 (racemic)
pIC50: 6.47

Compound: COc1cc(F)ccc1-c1cc(Nc2cc(CS(C)(=N)=O)cc(Cl)n2)ncn1 (single isomer, unassigned) [Example 5]
pIC50: 6.96

Compound: COc1cc(F)ccc1-c1cc(Nc2cc(CS(C)(=N)=O)cc(C)n2)ncn1 (racemic) [Example 7]
pIC50: 6.66

====

- Target or system: CDK2/CycE (Homo sapiens)
- Construct: GST; purchased ProQinase GmbH (Freiburg, Germany); host or cells: insect cells (Sf9)
- Test: CDK2/CycE kinase assay (Method 2a)
- Type: biochemical
- Condition description: 10 μM ATP
Below, each entry is listed with its recorded log10(IC50).
Reported property: log10(IC50) (log10 of the value in nM)

Compound: COc1cc(F)ccc1-c1cc(Nc2cc(CS(C)(=N)=O)ccn2)ncn1 (racemic) [Example 1]
Observed value: 2.78
--
Compound: COc1cc(F)ccc1-c1cc(Nc2cc(CS(C)(=N)=O)cc(C)n2)ncn1 (single isomer, unassigned) [Example 8]
Observed value: 2.60
--
Compound: COc1cc(F)ccc1-c1cc(Nc2cc(CS(C)(=N)=O)cc(C(F)(F)F)n2)ncn1 (racemic)
Observed value: 1.80
--
Compound: COc1cc(F)ccc1-c1cc(Nc2cc(CS(C)(=N)=O)cc(C)n2)ncn1 (single isomer, unassigned) [Example 9]
Observed value: 2.52
--
Compound: COc1cc(F)ccc1-c1cc(Nc2cc(CS(C)(=N)=O)ccn2)ncn1 (single isomer, unassigned) [Example 3]
Observed value: 2.82
--
Compound: COc1cc(F)ccc1-c1cc(Nc2cc(CS(C)(=N)=O)cc(Cl)n2)ncn1 (single isomer, unassigned) [Example 5]
Observed value: 1.75
--
Compound: COc1cc(F)ccc1-c1cc(Nc2cc(CS(C)(=N)=O)ccn2)ncn1 (single isomer, unassigned) [Example 2]
Observed value: 3.11

====

Here the recorded IC50 is given for each entry.
- Target or system: CDK2/CycE (Homo sapiens, UniProt P24941)
- Construct: GST; purchased ProQinase GmbH (Freiburg, Germany); host or cells: insect cells (Sf9)
- Test: CDK2/CycE kinase assay (Method 2a)
- Type: biochemical
- Condition description: 10 μM ATP
Reported property: IC50 (µM)

Molecule: COc1cc(F)ccc1-c1cc(Nc2cc(CS(C)(=N)=O)cc(C)n2)ncn1 (racemic) [Example 7]
Unit name: µM
Observed value: 0.28
//
Molecule: COc1cc(F)ccc1-c1cc(Nc2cc(CS(C)(=N)=O)cc(Cl)n2)ncn1 (single isomer, unassigned) [Example 6]
Unit name: µM
Observed value: 0.094
//
Molecule: COc1cc(F)ccc1-c1cc(Nc2cc(CS(C)(=N)=O)cc(Cl)n2)ncn1 (racemic) [Example 4]
Unit name: µM
Observed value: 0.16

====

- Test: Equilibrium shake flask solubility assay, thermodynamic solubility in water (Method 4a)
- Type: physicochemical
- Condition description: aqueous buffer, thermodynamic from solid; phosphate buffer pH 6.5, 24 h, room temperature

Compound: COc1cc(F)ccc1-c1cc(Nc2cc(CS(C)(=N)=O)ccn2)ncn1 (racemic) [Example 1]
solubility at 24 h (µg/mL): 7

====

- Target or system: human carbonic anhydrase-2 (Homo sapiens, UniProt P00918)

Compound: COc1cc(F)ccc1-c1cc(Nc2cc(CS(C)(=N)=O)ccn2)ncn1 (racemic)
Target or system: human carbonic anhydrase-2 (Homo sapiens, UniProt P00918)
IC50: > 10 µM

====

- Tested on: MOLM-13 cells
- Test: Proliferation assay, MOLM-13 (Method 3)
- Type: cell-based, human
- Condition description: Homo sapiens, MOLM-13, 72 h, 72-hour exposure, Cell Titre-Glo; read-out: Inhibition of MOLM 13 cell proliferation IC50
Recorded IC50 for the following molecules

Molecule: COc1cc(F)ccc1-c1cc(Nc2cc(CS(C)(=N)=O)cc(C)n2)ncn1 (racemic) [Example 7]
IC50 [nM]: 53
//
Molecule: COc1cc(F)ccc1-c1cc(Nc2cc(CS(C)(=N)=O)cc(Cl)n2)ncn1 (single isomer, unassigned) [Example 5]
IC50 [nM]: 33
//
Molecule: COc1cc(F)ccc1-c1cc(Nc2cc(CS(C)(=N)=O)cc(C(F)(F)F)n2)ncn1 (racemic) [Example 10]
IC50 [nM]: 32
//
Molecule: COc1cc(F)ccc1-c1cc(Nc2cc(CS(C)(=N)=O)cc(C)n2)ncn1 (single isomer, unassigned) [Example 8]
IC50 [nM]: 64
//
Molecule: COc1cc(F)ccc1-c1cc(Nc2cc(CS(C)(=N)=O)cc(Cl)n2)ncn1 (racemic) [Example 4]
IC50 [nM]: 47

====

- Test: Equilibrium shake flask solubility assay, thermodynamic solubility in citrate buffer pH 4 (Method 4b)
- Type: physicochemical
- Condition description: aqueous buffer, thermodynamic from solid; citrate buffer pH 4, 24 h, room temperature; read-out: Solubility in Citrate buffer pH4
- Experimental: 4b) Thermodynamic Solubility in Citrate Buffer pH 4 Thermodynamic solubility was determined by an equilibrium shake flask method [Literature: Edward H. Kerns and Li Di (2008) Solubility Methods in: Drug-like Properties: Concepts, Structure Design and Methods, p 276-286. […] Sample and standards were quantified by HPLC with UV-detection. […] The areas of sample- and standard injections as well as the calculation of the solubility value (in mg/l) were determined by using HPLC software (Waters Empower 2 FR).
Reported property: solubility at 24 h (µg/mL)

Compound: COc1cc(F)ccc1-c1cc(Nc2cc(CS(C)(=N)=O)cc(C)n2)ncn1 (racemic)
Unit name: µg/mL
Observed value: 157
--
Compound: COc1cc(F)ccc1-c1cc(Nc2cc(CS(C)(=N)=O)cc(C(F)(F)F)n2)ncn1 (racemic)
Unit name: µg/mL
Observed value: 11
--
Compound: COc1cc(F)ccc1-c1cc(Nc2cc(CS(C)(=N)=O)cc(Cl)n2)ncn1 (racemic)
Unit name: µg/mL
Observed value: 15

====

- Target or system: CDK2/CycE (Homo sapiens)
- Construct: GST; purchased ProQinase GmbH (Freiburg, Germany); host or cells: insect cells (Sf9)
- Test: CDK2/CycE high ATP kinase assay (Method 2b)
- Format: biochemical
- Condition description: 2 mM ATP
pIC50: −log10 of the molar value.
Reported property: pIC50

Compound: COc1cc(F)ccc1-c1cc(Nc2cc(CS(C)(=N)=O)cc(Cl)n2)ncn1 (racemic) [Example 4]
Target or system: CDK2/CycE (Homo sapiens)
Reported property: pIC50
Observed value: 5.95
--
Compound: COc1cc(F)ccc1-c1cc(Nc2cc(CS(C)(=N)=O)ccn2)ncn1 (single isomer, unassigned) [Example 2]
Target or system: CDK2/CycE (Homo sapiens)
Reported property: pIC50
Observed value: 5.81
--
Compound: COc1cc(F)ccc1-c1cc(Nc2cc(CS(C)(=N)=O)cc(Cl)n2)ncn1 (single isomer, unassigned) [Example 5]
Target or system: CDK2/CycE (Homo sapiens)
Reported property: pIC50
Observed value: 5.85
--
Compound: COc1cc(F)ccc1-c1cc(Nc2cc(CS(C)(=N)=O)cc(C(F)(F)F)n2)ncn1 (racemic) [Example 10]
Target or system: CDK2/CycE (Homo sapiens)
Reported property: pIC50
Observed value: 6.10
